test system: A. fumigatus AF293; experiment: Drug synergy (MIC in peptide-supplemented media); format: cell-based, Aspergillus fumigatus; conditions: +1 μg/mL KKOO; RPMI1640, 37 °C, 48 h; CAS: paradoxical growth, MIC = <20% growth
measure: MIC of antifungal in combination with KKOO (µg/mL)

# compound, prefix operator, number
rows = [
    ("CC[C@H](C)C[C@H](C)CCCCCCCCC(=O)N[C@H]1C[C@@H](O)[C@@H](NCCN)NC(=O)[C@@H]2[C@@H](O)CCN2C(=O)[C@H]([C@H](O)CCN)NC(=O)[C@H]([C@H](O)[C@@H](O)c2ccc(O)cc2)NC(=O)[C@@H]2C[C@@H](O)CN2C(=O)[C@H]([C@@H](C)O)NC1=O", "=", 0.062),
    ("OC(Cn1cncn1)(Cn1cncn1)c1ccc(F)cc1F", ">", 128),
    ("CCC(C)n1ncn(-c2ccc(N3CCN(c4ccc(OCC5COC(Cn6cncn6)(c6ccc(Cl)cc6Cl)O5)cc4)CC3)cc2)c1=O (stereo not shown)", "=", 0.125),
    ("C[C@@H]1[C@H](O)[C@@H](C)/C=C/C=C/C=C/C=C/C=C/C=C/C=C/[C@H](O[C@@H]2O[C@H](C)[C@@H](O)[C@H](N)[C@@H]2O)C[C@@H]2O[C@](O)(C[C@@H](O)C[C@@H](O)[C@H](O)CC[C@@H](O)C[C@@H](O)CC(=O)O[C@H]1C)C[C@H](O)[C@H]2C(=O)O", "=", 0.25),
]

----------
system: C. glabrata 2001; format: cell-based, Candida glabrata; conditions: +0 μg/mL KKOO-NH2 (control); RPMI1640, 37 °C, 48 h
measure: MIC of antifungal in combination with KKOO-NH2

# compound, test target, result
data = [
    ("CC[C@H](C)C[C@H](C)CCCCCCCCC(=O)N[C@H]1C[C@@H](O)[C@@H](NCCN)NC(=O)[C@@H]2[C@@H](O)CCN2C(=O)[C@H]([C@H](O)CCN)NC(=O)[C@H]([C@H](O)[C@@H](O)c2ccc(O)cc2)NC(=O)[C@@H]2C[C@@H](O)CN2C(=O)[C@H]([C@@H](C)O)NC1=O", "C. glabrata 2001", "0.5 µg/mL"),
    ("CCC(C)n1ncn(-c2ccc(N3CCN(c4ccc(OCC5COC(Cn6cncn6)(c6ccc(Cl)cc6Cl)O5)cc4)CC3)cc2)c1=O (stereo not shown)", "C. glabrata 2001", "0.5 µg/mL"),
    ("C[C@@H]1[C@H](O)[C@@H](C)/C=C/C=C/C=C/C=C/C=C/C=C/C=C/[C@H](O[C@@H]2O[C@H](C)[C@@H](O)[C@H](N)[C@@H]2O)C[C@@H]2O[C@](O)(C[C@@H](O)C[C@@H](O)[C@H](O)CC[C@@H](O)C[C@@H](O)CC(=O)O[C@H]1C)C[C@H](O)[C@H]2C(=O)O", "C. glabrata 2001", "1 µg/mL"),
    ("OC(Cn1cncn1)(Cn1cncn1)c1ccc(F)cc1F", "C. glabrata 2001", "8 µg/mL"),
]

----------
Test system: C. neoformans H99
Type: cell-based, Cryptococcus neoformans
Conditions: +8 μg/mL (FITC)KKOO; RPMI1640, 37 °C
Procedure: All microdilution assays with fungi were carried out in accordance with CLSI protocols from M27 for yeasts and M38 for filamentous fungi, respectively, unless otherwise specified.[64],[65] Briefly, 96-well plates were charged with RPMI1640 media, with operating volume in the first column, 200 μL, and half operating volume, 100 μL, in the remaining wells. Drug stock solution in DMSO was aliquoted into the first well in each row. […]
measure: MIC of antifungal in combination with (FITC)KKOO (µg/mL)

# compound, number
measured = [
    ("OC(Cn1cncn1)(Cn1cncn1)c1ccc(F)cc1F [FLC, fluconazole]", 2),
    ("CCC(C)n1ncn(-c2ccc(N3CCN(c4ccc(OCC5COC(Cn6cncn6)(c6ccc(Cl)cc6Cl)O5)cc4)CC3)cc2)c1=O (stereo not shown) [ITR, itraconazole]", 0.031),
    ("CC[C@H](C)C[C@H](C)CCCCCCCCC(=O)N[C@H]1C[C@@H](O)[C@@H](NCCN)NC(=O)[C@@H]2[C@@H](O)CCN2C(=O)[C@H]([C@H](O)CCN)NC(=O)[C@H]([C@H](O)[C@@H](O)c2ccc(O)cc2)NC(=O)[C@@H]2C[C@@H](O)CN2C(=O)[C@H]([C@@H](C)O)NC1=O [CAS, caspofungin]", 16),
    ("C[C@@H]1[C@H](O)[C@@H](C)/C=C/C=C/C=C/C=C/C=C/C=C/C=C/[C@H](O[C@@H]2O[C@H](C)[C@@H](O)[C@H](N)[C@@H]2O)C[C@@H]2O[C@](O)(C[C@@H](O)C[C@@H](O)[C@H](O)CC[C@@H](O)C[C@@H](O)CC(=O)O[C@H]1C)C[C@H](O)[C@H]2C(=O)O [AMB, amphotericin B]", 0.062),
]

----------
system: Cn MRL862; format: cell-based, Cryptococcus neoformans; conditions: +4 μg/mL KKOO-NH2; RPMI1640, 37 °C, 48 h
measure: MIC of antifungal in combination with KKOO-NH2 (µg/mL)

# compound, endpoint unit, number
data = [
    ("C[C@@H]1[C@H](O)[C@@H](C)/C=C/C=C/C=C/C=C/C=C/C=C/C=C/[C@H](O[C@@H]2O[C@H](C)[C@@H](O)[C@H](N)[C@@H]2O)C[C@@H]2O[C@](O)(C[C@@H](O)C[C@@H](O)[C@H](O)CC[C@@H](O)C[C@@H](O)CC(=O)O[C@H]1C)C[C@H](O)[C@H]2C(=O)O [AMB, amphotericin B]", "µg/mL", 0.016),
    ("CC[C@H](C)C[C@H](C)CCCCCCCCC(=O)N[C@H]1C[C@@H](O)[C@@H](NCCN)NC(=O)[C@@H]2[C@@H](O)CCN2C(=O)[C@H]([C@H](O)CCN)NC(=O)[C@H]([C@H](O)[C@@H](O)c2ccc(O)cc2)NC(=O)[C@@H]2C[C@@H](O)CN2C(=O)[C@H]([C@@H](C)O)NC1=O [CAS, caspofungin]", "µg/mL", 4),
    ("OC(Cn1cncn1)(Cn1cncn1)c1ccc(F)cc1F [FLC, fluconazole]", "µg/mL", 32),
    ("CCC(C)n1ncn(-c2ccc(N3CCN(c4ccc(OCC5COC(Cn6cncn6)(c6ccc(Cl)cc6Cl)O5)cc4)CC3)cc2)c1=O (stereo not shown) [ITR, itraconazole]", "µg/mL", 0.004),
]

----------
Test system: C. glabrata 2001
Format: cell-based, Candida glabrata
Settings: +4 μg/mL KKOO-NH2; RPMI1640, 37 °C, 48 h
Method: All microdilution assays with fungi were carried out in accordance with CLSI protocols from M27 for yeasts and M38 for filamentous fungi, respectively, unless otherwise specified.[64],[65] Briefly, 96-well plates were charged with RPMI1640 media, with operating volume in the first column, 200 μL, and half operating volume, 100 μL, in the remaining wells. Drug stock solution in DMSO was aliquoted into the first well in each row. […]
measure: MIC of antifungal in combination with KKOO-NH2 (µg/mL)

# compound, number
data = [
    ("CCC(C)n1ncn(-c2ccc(N3CCN(c4ccc(OCC5COC(Cn6cncn6)(c6ccc(Cl)cc6Cl)O5)cc4)CC3)cc2)c1=O (stereo not shown) [ITR, itraconazole]", 0.031),
    ("OC(Cn1cncn1)(Cn1cncn1)c1ccc(F)cc1F [FLC, fluconazole]", 8),
    ("CC[C@H](C)C[C@H](C)CCCCCCCCC(=O)N[C@H]1C[C@@H](O)[C@@H](NCCN)NC(=O)[C@@H]2[C@@H](O)CCN2C(=O)[C@H]([C@H](O)CCN)NC(=O)[C@H]([C@H](O)[C@@H](O)c2ccc(O)cc2)NC(=O)[C@@H]2C[C@@H](O)CN2C(=O)[C@H]([C@@H](C)O)NC1=O [CAS, caspofungin]", 0.004),
    ("C[C@@H]1[C@H](O)[C@@H](C)/C=C/C=C/C=C/C=C/C=C/C=C/C=C/[C@H](O[C@@H]2O[C@H](C)[C@@H](O)[C@H](N)[C@@H]2O)C[C@@H]2O[C@](O)(C[C@@H](O)C[C@@H](O)[C@H](O)CC[C@@H](O)C[C@@H](O)CC(=O)O[C@H]1C)C[C@H](O)[C@H]2C(=O)O [AMB, amphotericin B]", 0.25),
]

----------
system: Cg FKS2 S663P; test: Drug synergy (MIC in peptide-supplemented media); type: cell-based, Candida glabrata; conditions: +2 μg/mL KKOO-NH2; RPMI1640, 37 °C, 48 h
measure: MIC of antifungal in combination with KKOO-NH2 (µg/mL)

# compound, number
measured = [
    ("C[C@@H]1[C@H](O)[C@@H](C)/C=C/C=C/C=C/C=C/C=C/C=C/C=C/[C@H](O[C@@H]2O[C@H](C)[C@@H](O)[C@H](N)[C@@H]2O)C[C@@H]2O[C@](O)(C[C@@H](O)C[C@@H](O)[C@H](O)CC[C@@H](O)C[C@@H](O)CC(=O)O[C@H]1C)C[C@H](O)[C@H]2C(=O)O", 0.062),
    ("CC[C@H](C)C[C@H](C)CCCCCCCCC(=O)N[C@H]1C[C@@H](O)[C@@H](NCCN)NC(=O)[C@@H]2[C@@H](O)CCN2C(=O)[C@H]([C@H](O)CCN)NC(=O)[C@H]([C@H](O)[C@@H](O)c2ccc(O)cc2)NC(=O)[C@@H]2C[C@@H](O)CN2C(=O)[C@H]([C@@H](C)O)NC1=O", 1),
    ("CCC(C)n1ncn(-c2ccc(N3CCN(c4ccc(OCC5COC(Cn6cncn6)(c6ccc(Cl)cc6Cl)O5)cc4)CC3)cc2)c1=O (stereo not shown)", 0.004),
    ("OC(Cn1cncn1)(Cn1cncn1)c1ccc(F)cc1F", 0.5),
]

Hey, just so you know, these numbers are from paper PMC11555678.
